Tested on: MGC-803
assay.info: Cell cycle arrest in human MGC-803 cells assessed as accumulation of cells at S phase at 48 nM incubated for 24 hrs by PI staining based flow cytometric analysis (Rvb =7.84%)
Format: functional
readout.kind: Activity (%)
# number only, unit % dropped from output

Problem: Recorded Activity of CC(=O)Oc1ccc2[nH]c3c(c2c1)CCN1C(=O)c2cc(F)ccc2N(c2cccc(F)c2)C31 (centres undefined) , please.
Solution: 14.58

Problem: Now give it for O=C1c2cc(F)ccc2N(c2cccc(F)c2)C2c3[nH]c4ccc(O)cc4c3CCN12 (centres undefined) too.
Solution: 6.97

Problem: Again, but for CC[C@@]1(O)C(=O)OCc2c1cc1n(c2=O)Cc2cc3c(CN(C)C)c(O)ccc3nc2-1
Solution: 6.84

Problem: // query: COc1cc([C@@H]2c3cc4c(cc3[C@@H](O[C@@H]3O[C@@H]5CO[C@@H](C)O[C@H]5[C@H](O)[C@H]3O)[C@H]3COC(=O)[C@H]23)OCO4)cc(OC)c1O [ETOPOSIDE]
Solution: 6.96

// data source = ChEMBL document CHEMBL5338707
